# test-system: T1, CLD18A2
# T1 construct: also called claudin 18 splice variant A2; CHO-S-CLD18A2
# assay-summary: cell ELISA, E. coli expression supernatant on CHO-S-CLD18A2
OD450 nm listing for selected binders.
Return type: number; implicit unit OD450 nm.

Example entries begin here.
binder	recorded-measurement
Anti-C18.2-7 (VHH, not shown: small tags and cut ends, Treated as one molecule; also called C18-7) VHH: QVQLVESGGGLVQPGGSLRLSCAASGSIFLINAMGWYRQAPGKQRELVAVITRGGSANYTDSVKGRFTISRDNAKNTVYLQMNSLKPEDTAVYYCNADLNLRSDPFKWYTFWGQGTQVTVSS	0.594
Anti-C18.2-15 (VHH, not shown: small tags and cut ends, Treated as one molecule; also called C18-15) VHH: QVQLVESGGGLVQPGGSLRLSCTASGSIFRIDGMHWYRQAPGKQRELVASITPSGITHYADSVKGRFTISRDIAKKMQYLQMNSLKPEDTAVYYCNAHLVKVGGVWSDEYWGQGTQVTVSS	0.685
Anti-C18.2-6 (VHH, not shown: small tags and cut ends, Treated as one molecule; also called C18-6) VHH: QLQLVESGGGLVQPGGSLRLSCAASGGIFSIGVMGWYRQAPGKQRELVATITSRGSTNYADSVKGRFTISGDNAKNTVYLQMNNLKPEDTAVYYCYADLIRPGDFYGMDYWGKGTLVTVSS	0.623

We now examine a further binder.
Need OD450 nm of Anti-C18.2-19 (VHH, not shown: small tags and cut ends, Treated as one molecule; also called C18-19) VHH: QLQLVESGGGLVQPGGSLRLSCAASGVDISSDVMAWYRQAPGKQREFVSGLTRGGSINYADSVKGRFTISRDFAKNTVDLQMNSLKPEDTAVYYCNAEIYTGTFYPRSYWGQGTQVTVSS , thanks.
0.565
